test: yeast growth modulation, basal conditions, primary screen, YJM789 clinical isolate, OD600, 24 h (AID 1089);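 note: growth of clinical yeast isolate S. cerevisiae YJM 789 seeded 1000 cells per well; test concentration not given here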; conditions: S. cerevisiae YJM789 growth, called active from +8 up or from −8 down
Activity calls are given as the source filed them.
// classify into active, inactive

compound=C=CCNC(=O)[C@@H]1[C@H]2C(=O)O[C@H](c3ccccc3)[C@H](c3ccccc3)N2[C@H](c2ccc(OCCO)cc2)[C@@]12C(=O)N(C(=O)OCCOC)c1ccccc12 assigned_label=inactive
compound=COC(=O)[C@@]1(Cc2ccc(F)cc2)[C@H]2c3cc(C(=O)N4CCCC4)n(Cc4ccc(C(F)(F)F)nc4)c3C[C@H]2CN1C(=O)c1ccccc1 assigned_label=inactive

Identify the outcome logged in this assay for the compound shown: `CN(C)CCCCNC(=O)[C@H]1C[C@H]2C(=O)N[C@@H](CCCCN(C)C)C(=O)N2[C@H]1c1ccc(O)cc1`
inactive

Identify the outcome logged in this assay for the compound shown: CC[C@H]1C2=C3C(CC[C@H]4C(OCc5ccc(F)cc5C(F)(F)F)OC[C@](C)([C@@H]34)N(C(=O)OC(C)(C)C)C2)C(COC(C)=O)C1COC(C)=O (some centres undefined)
inactive

Identify the outcome logged in this assay for the compound shown: `C=C(C(=O)CC[C@H](OC(=O)c1ccccc1-c1ccccc1C(=O)O)c1ccc(OCCO)cc1)C(C)C`
inactive

Identify the outcome logged in this assay for the compound shown: O=C1NC(=O)C2C1C=CC(C(O)C1CCCCC1)N2Nc1ccccn1 (centres undefined)
inactive

Identify the outcome logged in this assay for the compound shown: `COC(=O)C(CC#Cc1ccc2c(c1)[C@]1(C(=O)N2)[C@H](C(=O)NC[C@H](O)c2ccccc2)[C@H]2C(=O)O[C@H](c3ccccc3)[C@H](c3ccccc3)N2[C@@H]1c1ccc(O)cc1)C(=O)OC`
inactive

Identify the outcome logged in this assay for the compound shown: O=C1C2C=CC(C(O)C3CCCCC3)N(Nc3ccccc3F)C2C(=O)N1c1ccccc1 (centres undefined)
inactive

Identify the outcome logged in this assay for the compound shown: `CCCCC(=C=CC[C@@H](O)c1ccccc1OCCO)C[C@@H](O)c1ccccn1`
inactive

Identify the outcome logged in this assay for the compound shown: `C=C1C(=O)C=C2CN(C(=O)c3ccccc3)[C@@](Cc3ccc(F)cc3)(C(=O)OC)[C@@H]12`
active

Identify the outcome logged in this assay for the compound shown: `COc1ccc([Si](C)(C)[C@H]2[C@H](CC(=O)N(CCO)Cc3ccccc3)O[C@@]3(C(=O)N(c4ccccc4)c4ccccc43)[C@@H]2C)cc1`
inactive

Identify the outcome logged in this assay for the compound shown: `COCCOC(=O)N1C(=O)[C@@]2(c3cc(C#CC4=CCCCC4)ccc31)[C@H](c1ccc(O)cc1)N1[C@H](c3ccccc3)[C@H](c3ccccc3)OC(=O)[C@H]1[C@@H]2C(=O)N1CCc2cc(OC)c(OC)cc2C1`
inactive

Identify the outcome logged in this assay for the compound shown: `CC[C@@H](O[Si](C#C[Si](C(C)C)(C(C)C)C(C)C)(C(C)C)C(C)C)c1cn([C@H](C)c2ccccc2)nn1`
inactive

Identify the outcome logged in this assay for the compound shown: `C=CCNC(=O)[C@@H]1[C@H]2C(=O)O[C@H](c3ccccc3)[C@H](c3ccccc3)N2[C@H](c2ccc(OCCO)cc2)[C@@]12C(=O)Nc1ccc(C#CCNC(N)=O)cc12`
inactive

###

Some compounds, each annotated with its measured z-score.
assay: A549 lung cancer cell viability effects, profiling panel, resazurin fluorescence, 24 h, PK04 Diversity Set (AID 1171); conditions: higher = more signal, called active from +8 up or from −8 down; note: test concentration not given here
Calls of active or inactive are those of the source.

compound=COc1cc(Cc2cc3c(c(-c4ccccc4)n2)[Si](C(C)C)(C(C)C)OC3)cc(OC)c1OC assay_result="0.534 (inactive)"

Output z-score of `CC(C)N1C(=O)[C@@]2(Cc3ccccc31)c1ccccc1C(=O)N(Cc1ccccc1C(F)(F)F)[C@H]2c1ccc(CO)cc1`
0.752 (inactive)

Output z-score of `C=CCNC(=O)[C@H]1[C@@H]2C(=O)O[C@@H](c3ccccc3)[C@@H](c3ccccc3)N2[C@@H](c2ccc(O)cc2)[C@]12C(=O)Nc1ccccc12`
0.552 (inactive)

Output z-score of `C=CCOC(=O)[C@@H]1[C@H]2C(=O)O[C@H](c3ccccc3)[C@H](c3ccccc3)N2[C@H](c2ccc(OCCOC(=O)[C@H]3C[C@H]4C(=O)N[C@@H](CCCCN(C)C)C(=O)N4[C@H]3c3cccc(OCCO)c3)cc2)[C@@]12C(=O)Nc1ccccc12`
0.64 (inactive)

Output z-score of `COC(=O)[C@@]1(Cc2ccc(F)cc2)[C@H]2c3cc(C(=O)N4CCCC4)n(C[C@H](O)CO)c3C[C@H]2CN1C(=O)c1ccccc1`
0.467 (inactive)

Output z-score of `COCCOC(=O)N1C(=O)[C@@]2(c3cc(C#CCNC(N)=O)ccc31)[C@H](C(N)=O)[C@H]1C(=O)O[C@H](c3ccccc3)[C@H](c3ccccc3)N1[C@@H]2c1ccc(O)cc1`
1.22 (inactive)

Output z-score of `CCCC=C(CCC)[C@@H](NC(=O)c1ccc(C(=O)OC)cc1)c1ccc(C(=O)OC)cc1`
0.69 (inactive)

Output z-score of `[N-]=[N+]=NCc1ccccc1C[C@@]1(C(N)=O)N=C(c2ccc(OCCCO)cc2)O[C@@H]1c1ccccc1N=[N+]=[N-]`
-0.583 (inactive)

Output z-score of `C=CC[C@]1(C(N)=O)N=C(c2ccc(OCCCO)cc2)O[C@H]1c1ccccc1N=[N+]=[N-]`
-0.752 (inactive)

Output z-score of `CCc1cccc(NC(=O)O[C@H]2[C@H](OC(=O)Nc3ccccc3-c3ccccc3)[C@H](OC(=O)Nc3ccccc3-c3ccccc3)[C@@H](OC)O[C@@H]2CO)c1`
-0.684 (inactive)

Output z-score of COc1ccc(C(O)C2C=CC3C(=O)N(C)C(=O)C3N2Nc2ccccc2)cc1 (stereo not drawn)
-1.27 (inactive)

Output z-score of `COCCOC(=O)N1C(=O)[C@@]2(c3cc(C#CCNC(N)=O)ccc31)[C@H](c1ccc(O)cc1)N1[C@H](c3ccccc3)[C@H](c3ccccc3)OC(=O)[C@H]1[C@@H]2C(=O)N1CCc2cc(OC)c(OC)cc2C1`
0.0875 (inactive)

Output z-score of `O=C1OC[C@@H](c2ccccc2)n2cc(/C=C/c3ccccc3)cc21`
0.229 (inactive)

###

biological target: Torsin-1A (Homo sapiens); test: small-molecule binders of mutant TOR1A in lysate, primary screen, cell lysate, small-molecule microarray, COS7 lysate, 635/667 nm fluorescence (AID 1150); details: COS7 hTOR1A mutant lysate, 635 nm fluorescence, higher = more signal;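 note: score pools 667 nm emission and signal to noise measuring lysate protein binding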
Class definitions on composite z-score: Low (below 0.3), Mid (0.3 to below 0.7), High (0.7 or more)

// known answers, use as guide
molecule="O=C1OCCC/C=C\\[C@H]2OC34C=CCN(Cc5ccccc5)C(=O)[C@H]3N(CCO)C(=O)[C@@H]4C12 (stereo partly drawn)" assay_target="Torsin-1A (Homo sapiens)" assigned_label=Low
molecule="COc1ccc(C(O)C2C=CC3C(=O)N(c4ccccc4)C(=O)C3N2Nc2ccccc2F)c2ccccc12 (stereo not drawn)" assay_target="Torsin-1A (Homo sapiens)" assigned_label=Low

Kindly identify the class of `COC(=O)[C@]1(Cc2ccccc2CN=[N+]=[N-])N=C(c2ccc(OCCCO)cc2)O[C@@H]1c1ccccc1N=[N+]=[N-]` .
Low

Kindly identify the class of `[N-]=[N+]=NCc1ccccc1C[C@@]1(C(N)=O)N=C(c2ccc(OCCCO)cc2)O[C@@H]1c1ccccc1N=[N+]=[N-]` .
Mid

Kindly identify the class of `COc1ccc(CCNC(=O)[C@@H]2c3ccccc3C(=O)N(Cc3cc(F)cc(C(F)(F)F)c3)[C@H]2c2ccc(CO)cc2)cc1` .
Mid

Kindly identify the class of `O=C1O[C@@H](c2ccccc2)[C@@H](c2ccccc2)N2[C@@H](c3ccc(OCCO)cc3)[C@]3(C(=O)Nc4ccc(C#CC5=CCCCC5)cc43)[C@@H](C(=O)Nc3nc4ccccc4s3)[C@H]12` .
Low

Kindly identify the class of `CC(C)N1C(=O)[C@@]2(Cc3ccccc31)c1ccccc1C(=O)N(Cc1ccccc1)[C@H]2c1ccc(CO)cc1` .
Low

Kindly identify the class of `CC(C)Cc1ccc(CN2CC[C@@H](NC(=O)c3ccccc3)C2)cc1` .
Low

Kindly identify the class of `COC(=O)C(CC#Cc1ccc2c(c1)[C@]1(C(=O)N2)[C@H](C(=O)N2CCN(c3ncccn3)CC2)[C@H]2C(=O)O[C@H](c3ccccc3)[C@H](c3ccccc3)N2[C@@H]1c1ccc(O)cc1)C(=O)OC` .
High

Kindly identify the class of `CC[C@@H](O[Si](C#C[Si](C(C)C)(C(C)C)C(C)C)(C(C)C)C(C)C)c1cn([C@H](C)c2ccccc2)nn1` .
Mid

Kindly identify the class of `CN(C)C(=O)[C@]1(CCS(=O)(=O)c2ccccc2)N=C(c2ccc(OCCCO)cc2)O[C@@H]1c1ccccc1CN=[N+]=[N-]` .
High

Kindly identify the class of `C[C@]1(C(=O)NC2CC2)c2ccccc2C(=O)N(Cc2cc(F)cc(C(F)(F)F)c2)[C@H]1c1ccc(CO)cc1` .
Mid

Kindly identify the class of `O=C1N(Cc2ccccc2)c2ccccc2C[C@@]12N=C(c1ccc(OCCCO)cc1)O[C@H]2c1ccccc1` .
Mid
